Target: BACE1 (Homo sapiens)
Sequence (P56817 46-501, species assumed): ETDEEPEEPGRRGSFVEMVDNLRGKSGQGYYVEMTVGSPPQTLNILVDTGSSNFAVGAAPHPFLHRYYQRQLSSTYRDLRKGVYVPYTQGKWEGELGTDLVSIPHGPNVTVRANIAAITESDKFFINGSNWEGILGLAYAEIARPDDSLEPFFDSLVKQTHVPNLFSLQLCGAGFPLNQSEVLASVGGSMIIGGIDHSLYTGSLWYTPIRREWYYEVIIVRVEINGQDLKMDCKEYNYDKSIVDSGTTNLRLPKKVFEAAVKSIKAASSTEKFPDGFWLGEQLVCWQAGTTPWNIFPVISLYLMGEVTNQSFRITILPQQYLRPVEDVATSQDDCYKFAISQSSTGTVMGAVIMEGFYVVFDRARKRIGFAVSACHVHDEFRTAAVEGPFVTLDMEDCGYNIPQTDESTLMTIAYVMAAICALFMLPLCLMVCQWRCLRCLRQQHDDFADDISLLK
Experiment: In vitro enzymatic BACE FRET (fluorescence resonance energy transfer) assay
Format: biochemical
Details: read-out: BACE 1 FRET assay
READOUT: IC50 (nM)
Give just the number in nM; leave the unit off.

*Q* Tell me the measured IC50 of CCC[C@H](NC(=O)[C@@H](C)OC)[C@H](O)CN[C@H]1CC2(CCC2)Oc2c1cc(CC(C)(C)C)nc2Cl , please.
*A* 371

*Q* Please look up its IC50: C=CC[C@H](NC(=O)COC)[C@H](O)CN[C@H]1CC2(CCC2)Oc2c(-c3ccc4c(c3)OCO4)cc(CC(C)(C)C)cc21
*A* 78

*Q* Quick one: IC50 for CCC[C@H](NC(=O)COC)[C@H](O)CN[C@H]1CC2(CCC2)Oc2c1cc(CC(C)(C)C)nc2NC ?
*A* 617

*Q* # IC50 lookup, item CCOC[C@H](NC(C)=O)[C@@H](O)CN[C@H]1CC2(CCC2)Oc2ncc(CC(C)(C)C)cc21
*A* 2720

*Q* Can you share its IC50? I mean this molecule: C=CC[C@H](NC(=O)COC)[C@H](O)CN[C@H]1CC2(CCC2)Oc2c(-c3nccs3)cc(CC(C)C)cc21
*A* 92

*Q* Find the recorded IC50 belonging to C=CC[C@H](NC(=O)COC)[C@H](O)CN[C@H]1CC2(CCC2)Oc2c1cc(CC(C)(C)C)nc2Nc1ccc2c(c1)OCO2 and report it.
*A* 16

*Q* May I ask what IC50 has been recorded for C=CC[C@H](NC(=O)[C@@H](C)OC)[C@H](O)CN[C@H]1CC2(CCC2)Oc2c(-c3nccs3)cc(CC(C)C)cc21 ?
*A* 92

* * *

Hi there, I'd appreciate the recorded pIC50 for every entry that follows.
Tested on: Cells stably expressing Amyloid Precursor Protein (APP)
Test: In vitro BACE cell-based assay (HEK cell assay): Aβ40 in conditioned medium by sandwich ELISA
Settings: Aβ40 in conditioned medium after 24 h incubation
Keep it numeric: pIC50 is minus log10 of the concentration in mol/L.

*Q* Find pIC50 (Cells stably expressing Amyloid Precursor Protein (APP)) for the entry C=CCC(NC(C)=O)C(O)CNC1CC2(CC(O)C2)Oc2ccc(CC(C)(C)C)cc21 (stereo not drawn) [Example 116]
*A* 7.82

*Q* Give recorded pIC50 with Cells stably expressing Amyloid Precursor Protein (APP) for the following molecule: CC=CC[C@H](NC(=O)[C@H]1CCC(=O)O1)[C@H](O)CN[C@H]1C[C@]2(C[C@H](F)C2)Oc2ncc(CC(C)(C)C)cc21 [Example 108]
*A* 7.02

*Q* Request: pIC50, test system Cells stably expressing Amyloid Precursor Protein (APP), entry C=CCC(NC(C)=O)C(O)CNC1CC2(CC(O)C2)Oc2ccc(Br)cc21 (stereo not drawn) [Example 117]
*A* 5.89

*Q* Notebook entry, Cells stably expressing Amyloid Precursor Protein (APP) assay: pIC50 of C=CC[C@H](NC(=O)[C@@H](C)F)[C@H](O)CN[C@H]1CC2(CCC2)Oc2ncc(CC(C)(C)C)cc21.C=CC[C@H](NC(=O)[C@H](C)F)[C@H](O)CN[C@H]1CC2(CCC2)Oc2ncc(CC(C)(C)C)cc21 [Example 148] = ?
*A* 6.92

*Q* Request: pIC50, test system Cells stably expressing Amyloid Precursor Protein (APP), entry C=CCC(NC(=O)C1CC1OCC)C(O)CNC1CC2(CCC2)Oc2ncc(CC(C)(C)C)cc21 (stereo not drawn) [Example 154]
*A* 6.62

*Q* # value lookup — system Cells stably expressing Amyloid Precursor Protein (APP), readout pIC50, item CC=CC[C@H](NC(=O)COC)[C@H](O)CN[C@H]1CC2(CC(F)C2)Oc2ncc(CC(C)(C)C)cc21 (stereo partly drawn) [Example 110]
*A* 6.53

*Q* Item: CC=CC[C@H](NC(C)=O)[C@H](O)CN[C@H]1CC2(CC(F)C2)Oc2ncc(CC(C)(C)C)cc21 (stereo partly drawn) [Example 109] Test system: Cells stably expressing Amyloid Precursor Protein (APP) Read-out: pIC50 Value: ?
*A* 7.21

*Q* Entry C=CCC(NC(C)=O)C(O)CNC1CC2(CC(O)C2)Oc2ccc(CC(C)(C)C)cc21 (stereo not drawn) [Example 115] , system Cells stably expressing Amyloid Precursor Protein (APP): what pIC50 was measured?
*A* 6.29
